Provenance of the data: ChEMBL document CHEMBL1201862

// GI50 lookup, one value per entry
Test system: EKVX
Measurement notes: NCI tumour cell line growth inhibition, 48 h
Active and inactive are the calls of the source. Cut-off read from the data, not from the text of the source: active = GI50 up to about 1.1 µM and inactive = higher.

Compound	System name	GI50
O=C(O)COc1ccc(C(=O)/C(SS/C(C(=O)c2ccc(OCC(=O)O)c(Cl)c2Cl)=C2\C=C(c3ccc(Cl)cc3)SS2)=C2/C=C(c3ccc(Cl)cc3)SS2)c(Cl)c1Cl	EKVX	57.1 µM (inactive)

Query GI50 for Cc1ccccc1NC(=O)C1C(=O)N(c2ccccc2C)C(=O)/C1=N\N (stereo not given)
> 100 µM (inactive)

Find the measured GI50 of N=C(NC(=S)N1CCCCC1)N1CCCCC1 and report it.
> 100 µM (inactive)

Supply reported GI50 belonging to this compound: O=C1O/C(=C(/Br)c2ccc(Cl)c(Cl)c2)c2ccccc21
> 10 µM (inactive)

----------
Form field: GI50 (one value per entry).
System: DLD-1
Measurement notes: NCI tumour cell line growth inhibition, 48 h
Activity calls are given as the source filed them. No stated cut-off is given here; in the data, active = GI50 up to about 1.1 µM and inactive = higher.

Compound	GI50
O=C1c2ccc3c4ccccc4n(-c4ccccc4)c3c2C(=O)N1c1ccc(Cl)cc1	> 100 µM (inactive)
O=C(Nc1nc2ccc([N+](=O)[O-])cc2s1)C(=O)C(C(=O)c1ccncc1)C1OC(=O)c2ccccc21 (centres undefined)	> 100 µM (inactive)
CSc1nc2c(c(O)c(C)c(=O)n2C2OC(COC(C)=O)C(OC(C)=O)C(OC(C)=O)C2OC(C)=O)c(=O)n1C (centres undefined)	> 100 µM (inactive)
CCC(=O)N1C(=S)SC[C@H]1C(=O)OC	> 100 µM (inactive)

Identify measured GI50 associated with Cc1c(/C=N/NC(=O)c2ccc(Cl)cc2)c(=O)n(-c2ccccc2)n1C
> 100 µM (inactive)

# return recorded GI50 for entry CN1CC(=O)N(C)c2[nH]cnc2C1=O
> 100 µM (inactive)

For the compound OC(c1cc2ccccc2[nH]1)C(O)(c1cc2ccccc2[nH]1)c1cc2ccccc2[nH]1 (centres undefined) , give its reported GI50.
11 µM (inactive)

Given CC(C)(C)c1cc(-c2c3nc(c(-c4cc(C(C)(C)C)cc(C(C)(C)C)c4)c4ccc([nH]4)c(-c4cc(C(C)(C)C)cc(C(C)(C)C)c4)c4nc(c(-c5cc(C(C)(C)C)cc(C(C)(C)C)c5)c5ccc2[nH]5)C=C4)C=C3)cc(C(C)(C)C)c1 , respond with its GI50.
> 100 µM (inactive)

----------
Test system: NCI/ADR-RES
Measurement notes: NCI tumour cell line growth inhibition, 48 h
Calls of active or inactive are those of the source. Cut-off read from the data, not from the text of the source: active = GI50 up to about 1.1 µM and inactive = higher.
Quantity: GI50

Compound	GI50
CCCCSC1=N/C(=C\c2ccc(N(C)C)cc2)C(Cl)=N1	> 100 µM (inactive)
CN(C)c1ccc(/N=N/c2ccncc2)cc1	31.2 µM (inactive)
CCc1c(-c2ccc(OC)cc2)oc(OC)c(C)c1=O	49 µM (inactive)
CC(=O)c1c(-c2ccco2)c(C#N)c(=S)n(C2OC(CO)C(O)C(O)C2O)c1-c1ccccc1 (configuration not stated)	55.1 µM (inactive)

Look up and report measured GI50 for this entry: [N-]=[N+]=NC1OC(=O)C(Cl)=C1N=P(c1ccccc1)(c1ccccc1)c1ccccc1 (configuration not stated)
5.51 µM (inactive)

Return value of GI50 for input c1ccc(CCN2CCCCCC2)nc1 , no commentary.
> 100 µM (inactive)

Dear colleague, please send me the reported GI50 for CN(C(=O)CCC(=O)O)c1ccccc1C(=O)O when you can.
> 100 µM (inactive)

Give GI50 for the following compound: Cc1nc2ccc(S(=O)(=O)O)cc2c(=O)n1-c1ccc(C(=O)NN2C(=O)C(Cl)C2c2cccs2)cc1 (configuration not stated)
> 100 µM (inactive)

Note down GI50 recorded for CN(C)Cc1cc(/N=N/c2cccc(Cl)c2)ccc1O
5.05 µM (inactive)

Check the records and state GI50 for C=C(C)CNC(=S)N(N)c1ccc2ccccc2c1
78 µM (inactive)
